# assay name: physchem
# condition context: aqueous with cosolvent or surfactant or cyclodextrin
measurement name: solubility

# input What measured solubility goes with C/C(=N\OC(=O)[C@@H](N)C(C)C)[C@H]1CC[C@H]2[C@@H]3CCC4=CC(=O)CC[C@]4(C)[C@H]3CC[C@]12C.Cl [Compound 7] ?
# output ≥ 60 mM

---

# assay name: physchem
# condition context: buffer, pH 7
Please respond with reported half-life for every item in the list.

# input What measured half-life goes with "CO/N=C(\C)[C@H]1CC[C@H]2[C@@H]3CCC4=CC(=O)CC[C@]4(C)[C@H]3CC[C@]12C" ?
# output > 240 h

# input Likewise for "C/C(=N\OC(=O)CN1CCN(C)CC1)[C@H]1CC[C@H]2[C@@H]3CCC4=CC(=O)CC[C@]4(C)[C@H]3CC[C@]12C" ?
# output ~72 h

# input Likewise for "CC(=O)[C@H]1CC[C@H]2[C@@H]3CCC4=C/C(=N/O)CC[C@]4(C)[C@H]3CC[C@]12C" ?
# output > 240 h

# input Likewise for "C/C(=N\OC(=O)[C@@H]1CCC[N+]1(C)C)[C@H]1CC[C@H]2[C@@H]3CCC4=CC(=O)CC[C@]4(C)[C@H]3CC[C@]12C.[I-]" ?
# output 0.833 h

# input Likewise for "C/C(=N\OCCN1CCOCC1)[C@H]1CC[C@H]2[C@@H]3CCC4=CC(=O)CC[C@]4(C)[C@H]3CC[C@]12C" ?
# output > 240 h

# input Likewise for "C/C(=N\OC(=O)[C@@H](N)C(C)C)[C@H]1CC[C@H]2[C@@H]3CCC4=CC(=O)CC[C@]4(C)[C@H]3CC[C@]12C.Cl" ?
# output 11.4 h

---

# System: Primary cortical cells
# assay name: Reduction of neuronal cell death after a glutamate challenge (MTT / LDH release)
# Assay type: cell-based
# condition context: read-out: maximum efficacy, reduction in cell death
The recorded Emax of each item maps onto one of these classes: low band: < 20%; middle band: ≥ 20% and < 30%; high band: ≥ 30%

# input Could you place "CC(=O)[C@H]1CC[C@H]2[C@@H]3CCC4=C/C(=N/O)CC[C@]4(C)[C@H]3CC[C@]12C" in its proper category? Many thanks.
# output middle band

# input Likewise for C/C(=N\OC(=O)[C@@H](N)C(C)C)[C@H]1CC[C@H]2[C@@H]3CCC4=CC(=O)CC[C@]4(C)[C@H]3CC[C@]12C.Cl [Compound 7, hydrochloride] ?
# output middle band

# input Likewise for "C/C(=N\OC(=O)C1CC[N+](C)(C)CC1)[C@H]1CC[C@H]2[C@@H]3CCC4=CC(=O)CC[C@]4(C)[C@H]3CC[C@]12C.[I-]" ?
# output low band

# input Likewise for CC(=O)[C@H]1CC[C@H]2[C@@H]3CCC4=C/C(=N/OC(=O)[C@@H](N)C(C)C)CC[C@]4(C)[C@H]3CC[C@]12C.Cl [Compound 1, Hydrochloride] ?
# output middle band

# input Likewise for CC(=O)[C@H]1CC[C@H]2[C@@H]3CCC4=CC(=O)CC[C@]4(C)[C@H]3CC[C@]12C [PROG, Progesterone, reference compound] ?
# output high band

# input Likewise for C/C(=N\OC(=O)[C@@H]1CCCN1)[C@H]1CC[C@H]2[C@@H]3CCC4=CC(=O)CC[C@]4(C)[C@H]3CC[C@]12C.Cl [Compound 8, Hydrochloride] ?
# output high band

# input Likewise for "C/C(=N\OC(=O)c1ccc[n+](C)c1)[C@H]1CC[C@H]2[C@@H]3CCC4=CC(=O)CC[C@]4(C)[C@H]3CC[C@]12C.[I-]" ?
# output low band

# input Likewise for C/C(=N\OC(=O)C1CCNCC1)[C@H]1CC[C@H]2[C@@H]3CCC4=CC(=O)CC[C@]4(C)[C@H]3CC[C@]12C.Cl [Compound 18, hydrochloride] ?
# output middle band

# input Likewise for "C/C(=N\OCCN1CCOCC1)[C@H]1CC[C@H]2[C@@H]3CCC4=CC(=O)CC[C@]4(C)[C@H]3CC[C@]12C" ?
# output middle band

Origin of the recorded values: patent US11274118B2
